# Tested on: HL-60(TB) leukemia
# EXPERIMENT NOTES: NCI tumour cell line growth inhibition, 48 h
QUANTITY: GI50

Name the reported GI50 value associated with the compound "CC(=O)NS(=O)(=O)c1ccc(-n2nc(-c3ccc(Cl)cc3)cc2-c2cc(O)ccc2O)cc1"
40.8 µM

How about this compound: "CC(C)=[CH][Sb]([Br])([CH]=C(C)C)([CH]=C(C)C)[c]1ccccc1"
3.71 µM

How about this compound: "COc1cc2ccnc(C=O)c2cc1OC"
2.2 µM

How about this compound: "Clc1ccc(OCc2nn3c(CCCCc4nnc5sc(COc6ccc(Cl)cc6Cl)nn45)nnc3s2)c(Cl)c1"
> 100 µM

How about this compound: "CN(C)c1cc[n+](/C(NS(=O)(=O)c2cc(C(=O)Nc3ccc(Cl)cc3)c(Cl)cc2[S-])=C(\C#N)C(=O)c2ccccc2)cc1"
> 100 µM

How about this compound: Clc1ccc2c(c1)C(Br)c1cc(Cl)cc(Cl)c1-2 (stereo not given)
> 100 µM

How about this compound: "COc1cc(-c2ccc(-c3ccc(C(=N)N)cc3)s2)cc(OC)c1OC"
2.13 µM

How about this compound: "NC1CCCCC1N.Nc1c(N=Nc2ccc(-c3ccc(N=Nc4cc(S(=O)(=O)[O-])c5ccccc5c4N)cc3)cc2)cc(S(=O)(=O)[O-])c2ccccc12.[OH3+].[OH3+].[Pt+4]"
21.2 µM

How about this compound: "CC1=C2O[C@]3(O)C=C2C(=C(O)C1=O)[C@@H]1O[C@H](CC[C@H](C)/C=C(\C)C[C@@H](C)C[C@@H]3C)[C@H](C)[C@H](O)[C@H]1C"
0.203 µM

How about this compound: "COc1cc2c3c(n(CCCNCCNCCN)c(=O)c2cc1OC)-c1cc2c(cc1C3=O)OCO2"
1.14 µM
